test: Selectivity index, ratio of IC50 for rat L6 cells to IC50 for chloroquine-resistant Plasmodium falciparum K1; type: toxicity, cell-based; settings: read-out: Ratio IC50
Assay endpoint: selectivity ratio
I'd appreciate a reply containing only the number, no unit.

Here are 3 compounds together with their reported answers.
| Structure | selectivity ratio |
| --- | --- |
| CNc1nc(C(=N)Nc2ccc(-c3ccc(-c4ccc(NC(=N)c5csc(NC)n5)cc4OC(C)C)o3)c(OC(C)C)c2)cs1 | 25.8 |
| CC(C)Oc1cc(NC(=N)c2ncccn2)ccc1-c1ccc(-c2ccc(NC(=N)c3ncccn3)cc2OC(C)C)o1.Cl | 682 |
| CC(C)Oc1cc(NC(=N)c2csc(N)n2)ccc1-c1ccc(-c2ccc(NC(=N)c3csc(N)n3)cc2OC(C)C)o1 | 94.9 |

Inquiry: Consider the compound shown here: CC(C)Oc1cc(NC(=N)c2cn(C)cn2)ccc1-c1ccc(-c2ccc(NC(=N)c3cn(C)cn3)cc2OC(C)C)o1 What is its recorded selectivity ratio?
Reply text: 148

Inquiry: Can you check CC(C)Oc1cc(NC(=N)c2cccnn2)ccc1-c1ccc(-c2ccc(NC(=N)c3cccnn3)cc2OC(C)C)o1 next?
Reply text: 3.09

====

assay: Selectivity index, ratio of IC50 for rat L6 cells to IC50 for Leishmania amazonensis; format: toxicity, cell-based; conditions: read-out: Ratio IC50
Assay endpoint: selectivity ratio

Here are 4 compounds together with their reported answers.
| Structure | Result value |
| --- | --- |
| CC(C)Oc1cc(NC(=N)c2csc(N)n2)ccc1-c1ccc(-c2ccc(NC(=N)c3csc(N)n3)cc2OC(C)C)o1 | 2.18 |
| CNc1nc(C(=N)Nc2ccc(-c3ccc(-c4ccc(NC(=N)c5csc(NC)n5)cc4OC(C)C)o3)c(OC(C)C)c2)cs1 | 2.67 |
| CC(C)Oc1cc(NC(=N)c2cccnn2)ccc1-c1ccc(-c2ccc(NC(=N)c3cccnn3)cc2OC(C)C)o1 | 1.64 |
| CC(=O)N(C)c1nc(C(=N)Nc2ccc(-c3ccc(-c4ccc(NC(=N)c5csc(N(C)C(C)=O)n5)cc4OC(C)C)o3)c(OC(C)C)c2)cs1 | 0.99 |

Inquiry: Consider the compound shown here: CC(C)Oc1cc(NC(=N)c2cnccn2)ccc1-c1ccc(-c2ccc(NC(=N)c3cnccn3)cc2OC(C)C)o1 What is its recorded selectivity ratio?
Reply text: 34.8

Inquiry: Can you check CC(C)Oc1cc(NC(=N)c2ccn(C)n2)ccc1-c1ccc(-c2ccc(NC(=N)c3ccn(C)n3)cc2OC(C)C)o1 next?
Reply text: 1.89

Inquiry: Can you check Cc1csc(C(=N)Nc2ccc(-c3ccc(-c4ccc(NC(=N)c5nc(C)cs5)cc4OC(C)C)o3)c(OC(C)C)c2)n1 next?
Reply text: > 12.2

====

assay: Selectivity index, ratio of IC50 for rat L6 cells to IC50 for Trypanosoma cruzi Tulahen LacZ/C4 amastigotes; type: toxicity, cell-based; conditions: read-out: Ratio IC50
Measured selectivity ratio, listed per entry.
I'd appreciate a reply containing only the number, no unit.

| Structure | selectivity ratio |
| --- | --- |
| CC(C)Oc1cc(NC(=N)c2ncccn2)ccc1-c1ccc(-c2ccc(NC(=N)c3ncccn3)cc2OC(C)C)o1.Cl | 29 |

Okay, now this compound:
Inquiry: Consider the compound shown here: CC(C)Oc1cc(NC(=N)c2ccccn2)ccc1-c1ccc(-c2ccc(NC(=N)c3ccccn3)cc2OC(C)C)o1 What is its recorded selectivity ratio?
Reply text: 30

====

test: Selectivity index, ratio of IC50 for rat L6 cells to IC50 for Trypanosoma brucei rhodesiense STIB900 trypomastigotes; assay type: toxicity, cell-based; conditions: read-out: Ratio IC50
Please use condition met whenever selectivity ratio is not below 10, and condition not met whenever it is.

Please review the following examples before continuing.
| Structure | Classification |
| --- | --- |
| CC(C)Oc1cc(NC(=N)c2cn(C)cn2)ccc1-c1ccc(-c2ccc(NC(=N)c3cn(C)cn3)cc2OC(C)C)o1 | condition met |
| CC(C)Oc1cc(NC(=N)c2csc(N)n2)ccc1-c1ccc(-c2ccc(NC(=N)c3csc(N)n3)cc2OC(C)C)o1 | condition met |
| CC(C)Oc1cc(NC(=N)c2ccccn2)ccc1-c1ccc(-c2ccc(NC(=N)c3ccccn3)cc2OC(C)C)o1 | condition met |
| CC(C)Oc1cc(NC(=N)c2cccnn2)ccc1-c1ccc(-c2ccc(NC(=N)c3cccnn3)cc2OC(C)C)o1 | condition not met |
| CC(=O)Nc1nc(C(=N)Nc2ccc(-c3ccc(-c4ccc(NC(=N)c5csc(NC(C)=O)n5)cc4OC(C)C)o3)c(OC(C)C)c2)cs1.Cl | condition met |

Inquiry: Tell me whether selectivity ratio is at least 10 here: CC(C)Oc1cc(NC(=N)c2ncccn2)ccc1-c1ccc(-c2ccc(NC(=N)c3ncccn3)cc2OC(C)C)o1.Cl
Reply text: condition met

Inquiry: Can you check Cc1nc(C(=N)Nc2ccc(-c3ccc(-c4ccc(NC(=N)c5csc(C)n5)cc4OC(C)C)o3)c(OC(C)C)c2)cs1 next?
Reply text: condition not met

====

experiment: Selectivity index, ratio of IC50 for rat L6 cells to IC50 for chloroquine-resistant Plasmodium falciparum K1; format: toxicity, cell-based; settings: read-out: Ratio IC50
Measured selectivity ratio, listed per entry.
I'd appreciate a reply containing only the number, no unit.

| Structure | selectivity ratio |
| --- | --- |
| CC(C)Oc1cc(NC(=N)c2ncc[nH]2)ccc1-c1ccc(-c2ccc(NC(=N)c3ncc[nH]3)cc2OC(C)C)o1 | 107 |
| CC(=O)Nc1nc(C(=N)Nc2ccc(-c3ccc(-c4ccc(NC(=N)c5csc(NC(C)=O)n5)cc4OC(C)C)o3)c(OC(C)C)c2)cs1.Cl | 66.7 |
| CC(C)Oc1cc(NC(=N)c2ccc[nH]2)ccc1-c1ccc(-c2ccc(NC(=N)c3ccc[nH]3)cc2OC(C)C)o1 | 40 |

Inquiry: Consider the molecule shown here: CC(=O)N(C)c1nc(C(=N)Nc2ccc(-c3ccc(-c4ccc(NC(=N)c5csc(N(C)C(C)=O)n5)cc4OC(C)C)o3)c(OC(C)C)c2)cs1 What is its recorded selectivity ratio?
Reply text: 22.6

====

experiment: Selectivity index, ratio of IC50 for rat L6 cells to IC50 for Leishmania amazonensis; format: toxicity, cell-based; settings: read-out: Ratio IC50
Please use Met whenever selectivity ratio is not below 3, and Not met whenever it is.

Please review the following examples before continuing.
| Structure | Classification |
| --- | --- |
| CC(C)Oc1cc(NC(=N)c2ncccn2)ccc1-c1ccc(-c2ccc(NC(=N)c3ncccn3)cc2OC(C)C)o1.Cl | Met |
| Cc1nc(C(=N)Nc2ccc(-c3ccc(-c4ccc(NC(=N)c5csc(C)n5)cc4OC(C)C)o3)c(OC(C)C)c2)cs1 | Met |
| CC(C)Oc1cc(NC(=N)c2ccc[nH]2)ccc1-c1ccc(-c2ccc(NC(=N)c3ccc[nH]3)cc2OC(C)C)o1 | Not met |
| CC(C)Oc1cc(NC(=N)c2cn(C)cn2)ccc1-c1ccc(-c2ccc(NC(=N)c3cn(C)cn3)cc2OC(C)C)o1 | Not met |
| CC(C)Oc1cc(NC(=N)c2ccccn2)ccc1-c1ccc(-c2ccc(NC(=N)c3ccccn3)cc2OC(C)C)o1 | Met |
| CC(=O)Nc1nc(C(=N)Nc2ccc(-c3ccc(-c4ccc(NC(=N)c5csc(NC(C)=O)n5)cc4OC(C)C)o3)c(OC(C)C)c2)cs1.Cl | Not met |

Inquiry: Tell me whether selectivity ratio is at least 3 here: CC(C)Oc1cc(NC(=N)c2ncc[nH]2)ccc1-c1ccc(-c2ccc(NC(=N)c3ncc[nH]3)cc2OC(C)C)o1
Reply text: Met

====

Measured selectivity ratio, listed per entry.
assay: Selectivity index, ratio of IC50 for rat L6 cells to IC50 for Trypanosoma cruzi Tulahen LacZ/C4 amastigotes; type: toxicity, cell-based; conditions: read-out: Ratio IC50
I'd appreciate a reply containing only the number, no unit.

| Structure | selectivity ratio |
| --- | --- |
| CNc1nc(C(=N)Nc2ccc(-c3ccc(-c4ccc(NC(=N)c5csc(NC)n5)cc4OC(C)C)o3)c(OC(C)C)c2)cs1 | 0.35 |
| CC(C)Oc1cc(NC(=N)c2ncc[nH]2)ccc1-c1ccc(-c2ccc(NC(=N)c3ncc[nH]3)cc2OC(C)C)o1 | 2.67 |
| CC(=O)N(C)c1nc(C(=N)Nc2ccc(-c3ccc(-c4ccc(NC(=N)c5csc(N(C)C(C)=O)n5)cc4OC(C)C)o3)c(OC(C)C)c2)cs1 | 0.26 |

Inquiry: Consider the molecule shown here: CC(C)Oc1cc(NC(=N)c2cn(C)cn2)ccc1-c1ccc(-c2ccc(NC(=N)c3cn(C)cn3)cc2OC(C)C)o1 What is its recorded selectivity ratio?
Reply text: 0.44

Inquiry: Can you check CC(C)Oc1cc(NC(=N)c2cccnn2)ccc1-c1ccc(-c2ccc(NC(=N)c3cccnn3)cc2OC(C)C)o1 next?
Reply text: 1.2

Inquiry: Can you check Cc1nc(C(=N)Nc2ccc(-c3ccc(-c4ccc(NC(=N)c5csc(C)n5)cc4OC(C)C)o3)c(OC(C)C)c2)cs1 next?
Reply text: 2.04

====

assay: Selectivity index, ratio of IC50 for rat L6 cells to IC50 for chloroquine-resistant Plasmodium falciparum K1; type: toxicity, cell-based; conditions: read-out: Ratio IC50
Assay endpoint: selectivity ratio

| Structure | selectivity ratio |
| --- | --- |
| CC(C)Oc1cc(NC(=N)c2ccc(Br)s2)ccc1-c1ccc(-c2ccc(NC(=N)c3ccc(Br)s3)cc2OC(C)C)o1 | > 120 |
| Cc1csc(C(=N)Nc2ccc(-c3ccc(-c4ccc(NC(=N)c5nc(C)cs5)cc4OC(C)C)o3)c(OC(C)C)c2)n1 | > 122 |
| CC(C)Oc1cc(NC(=N)c2cc(Br)cs2)ccc1-c1ccc(-c2ccc(NC(=N)c3cc(Br)cs3)cc2OC(C)C)o1 | > 109 |

Okay, now this compound:
Inquiry: Consider the compound shown here: CC(C)Oc1cc(NC(=N)c2cnccn2)ccc1-c1ccc(-c2ccc(NC(=N)c3cnccn3)cc2OC(C)C)o1 What is its recorded selectivity ratio?
Reply text: > 234
